System: HOP-92 NSCLC
ASSAY SUMMARY: NCI tumour cell line growth inhibition, 48 h
RESULT TYPE: TGI (µM)
// units = µM; emit number, no label

COMPOUND: COc1ccc(N2CCN(C(=O)c3ccccc3Nc3ccnc(C(F)(F)F)c3)CC2)cc1
RESULT TYPE: TGI
ASSAY VALUE: 68.8
//
COMPOUND: CC(C)C[C@H](NC(=O)[C@H](CCc1ccccc1)NC(=O)CN1CCOCC1)C(=O)N[C@@H](Cc1ccccc1)C(=O)N[C@@H](CC(C)C)C(=O)[C@@]1(C)CO1
RESULT TYPE: TGI
ASSAY VALUE: 0.0812
//
COMPOUND: S=c1nc(-c2ccccc2)oc(=NC2CCCCC2)n1C1CCCCC1
RESULT TYPE: TGI
ASSAY VALUE: 0.079

## Input Query the reported TGI for HOP-92 NSCLC; item: COc1ccc(C2OC(=O)c3c2ccc2ccccc32)c(C)c1 (stereo not given)
## Output 80.1
